- Tested on: E18 rat cortical neuron-glia co-culture;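 note: MBP fiber length per Olig2+ nucleus over MBP area × intensity per Olig2+ nucleus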
- procedure_text: fiber score / MBP score (myelination specific beyond OL differentiation) (ratio); higher = more myelination-specific MBP alignment
- details: 1 µM; treatment time: 8 days (DIV5-DIV13)
Reported fiber score / MBP score by item:

See these solved cases before continuing.
c1ccc2c3c([nH]c2c1)CNCC3	0.757
CCC1(c2ccc(N)cc2)CCC(=O)NC1=O (centres undefined) [Aminoglutethimide]	0.845
CN1CCN(C(=O)O[C@H]2c3nccnc3C(=O)N2c2ccc(Cl)cn2)CC1	0.461
c1cncc([C@@H]2CCCN2)c1	0.765
C[C@]12CC[C@H]3[C@@H](CCC4=CC(=O)CC[C@@H]43)[C@@H]1CC[C@@H]2O	0.984

// query fiber score / MBP score value for entry COc1cc(N)c(Cl)cc1C(=O)NC1CN2CCC1CC2 (centres undefined) [Zacopride]
0.703

Next: CCN(CC)CCOC(=O)C(O)(c1ccccc1)c1ccccc1
1.18

Next: Oc1ccc2c3c1O[C@H]1c4[nH]c5ccccc5c4C[C@@]4(O)[C@@H](C2)N(CC2CC2)CC[C@]314
0.716

Next: Cc1ncc2n1-c1ccc(Cl)cc1C(c1ccccc1F)=NC2
0.908
